Examples of substances with documented Mean efficiency follow.
Test system: luciferase-based reporter constructs in S2R+ cells
Assay: Luciferase-based mutation reporter assay (sgRNA mutation efficiency)
Format: cell-based, Drosophila
Settings: sgRNAs with no mismatches targeting luciferase-based reporter in S2R+ cells; mutation rate = 1/Firefly luciferase normalized to Renilla
Please give only the number in your answer, with no unit.

substance="GCGAGTTATCTATCCCCAGG: sgRNA targeting a luciferase-based reporter construct, no mismatches (chemistry not given here)" measured_result=0.4749
substance="CCACCGCGATATATGGGCGA: sgRNA targeting a luciferase-based reporter construct, no mismatches (chemistry not given here)" measured_result=0.5711
substance="ATCTTCCCGTCGACATAGCC: sgRNA targeting a luciferase-based reporter construct, no mismatches (chemistry not given here)" measured_result=0.1609

Give Mean efficiency for the following substance: ATAGTTCCCTCCATGCCCTT: sgRNA targeting a luciferase-based reporter construct, no mismatches (chemistry not given here)
0.07786

Give Mean efficiency for the following substance: AAAGAGCTGCGGGCCGGGCG: sgRNA targeting a luciferase-based reporter construct, no mismatches (chemistry not given here)
0.06954

Give Mean efficiency for the following substance: TTTTTTTGGGATCATATACG: sgRNA targeting a luciferase-based reporter construct, no mismatches (chemistry not given here)
0.1278

Give Mean efficiency for the following substance: TTCTGAGTACATGTGATACC: sgRNA targeting a luciferase-based reporter construct, no mismatches (chemistry not given here)
0.2974

Give Mean efficiency for the following substance: ACCAGCATATGCCGGCCTGC: sgRNA targeting a luciferase-based reporter construct, no mismatches (chemistry not given here)
0.767

Give Mean efficiency for the following substance: CCTGGATGATACGCTGGCGC: sgRNA targeting a luciferase-based reporter construct, no mismatches (chemistry not given here)
0.1807

Give Mean efficiency for the following substance: ATCTGACCTCCCGGCTAATT: sgRNA targeting a luciferase-based reporter construct, no mismatches (chemistry not given here)
0.05737

Give Mean efficiency for the following substance: CTCACAGACGGCGCCCGGCG: sgRNA targeting a luciferase-based reporter construct, no mismatches (chemistry not given here)
0.4741

* * *

Examples of substances with documented Mean efficiency follow.
System: luciferase-based reporter constructs in S2R+ cells
Experiment: Luciferase-based mutation reporter assay (sgRNA mutation efficiency)
Format: cell-based, Drosophila
Details: sgRNAs with no mismatches targeting luciferase-based reporter in S2R+ cells; mutation rate = 1/Firefly luciferase normalized to Renilla
Please give only the number in your answer, with no unit.

Solved entries:
substance="GTGGAATCTACTGTGGAATC: sgRNA targeting a luciferase-based reporter construct, no mismatches (chemistry not given here)" measured_result=0.2969
substance="TGACGCCTCAGGGTGCCGTC: sgRNA targeting a luciferase-based reporter construct, no mismatches (chemistry not given here)" measured_result=0.6594
substance="AAGTAGGCTCTCCTGAATGG: sgRNA targeting a luciferase-based reporter construct, no mismatches (chemistry not given here)" measured_result=0.1224
substance="TCCTATTACTGCGTGCAGCC: sgRNA targeting a luciferase-based reporter construct, no mismatches (chemistry not given here)" measured_result=1.342

Here's the next entry for you.
Give Mean efficiency for the following substance: GCCCAGGGGGAATCGGCCGC: sgRNA targeting a luciferase-based reporter construct, no mismatches (chemistry not given here)
0.4072
